molecular target: UniProt P08684; conditions: Potency
Sequence (P08684 whole entry): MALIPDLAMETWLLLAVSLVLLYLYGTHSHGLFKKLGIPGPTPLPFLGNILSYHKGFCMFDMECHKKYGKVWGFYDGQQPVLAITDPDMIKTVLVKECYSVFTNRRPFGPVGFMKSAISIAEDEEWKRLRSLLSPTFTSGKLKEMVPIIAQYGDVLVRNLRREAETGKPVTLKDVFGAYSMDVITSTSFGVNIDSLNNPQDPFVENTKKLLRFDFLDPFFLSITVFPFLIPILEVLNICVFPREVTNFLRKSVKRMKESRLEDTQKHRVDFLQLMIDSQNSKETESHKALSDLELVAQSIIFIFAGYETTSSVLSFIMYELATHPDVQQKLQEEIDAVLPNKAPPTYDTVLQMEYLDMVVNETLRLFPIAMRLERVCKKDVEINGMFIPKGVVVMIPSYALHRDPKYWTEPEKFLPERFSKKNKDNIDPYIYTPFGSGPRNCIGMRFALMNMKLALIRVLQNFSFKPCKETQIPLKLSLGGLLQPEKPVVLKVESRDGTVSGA
Readout: AC50

# AC50 (compound: `COC(=O)N1[C@H](C)C=C[C@]1(Cc1ccccc1)C(=O)NCc1ccc(N(C)C)cc1` ) is 1 µM (inconclusive)

# AC50 (compound: `COc1cc2c(cc1O)-c1c(O)c(OC)cc3c1[C@H](C2)N(C)CC3` ) is 20 µM (inconclusive)

# AC50 (compound: COc1ccc(C(=O)c2ccc(O)cc2)c(O)c1O [2,3,4'-TRIHYDROXY-4-METHOXYBENZOPHENONE] ) is 25.1 µM (inconclusive)

# AC50 (compound: `O=C(O)/C=C/c1ccc(O)c(O)c1` ) is 25.1 µM (inconclusive)

----------
Assignment: determine reported IC50 for the given compounds.
target: Prothrombin (Homo sapiens); experiment: Thrombin 1536 HTS Dose Response Confirmation. [Related pubchem assays: 1046 (Thrombin 1536 HTS; hits were confirmed in this assay)]; assay type: functional
The source made the active and inactive calls.

# IC50 (compound: `COc1ccc(C(C)C)cc1S(=O)(=O)Nc1ccncc1` ) is > 50 µM (not active)

# IC50 (compound: O=C1OC(Nc2ccc(F)c([N+](=O)[O-])c2)c2ccccc21 (configuration not stated) ) is > 50 µM (not active)

# IC50 (compound: Cc1ccc2c(c1)c1c3n2CCCNC3CCC1 (configuration not stated) ) is > 50 µM (not active)

# IC50 (compound: `CCCC(=O)n1nc(-c2ccco2)nc1N` ) is 1.28 µM (active)

# IC50 (compound: `CCC(=O)Nc1ccc(C(=O)CSc2nc3ccccc3cc2CC)cc1` ) is > 50 µM (not active)

# IC50 (compound: `O=C(COC(=O)C12CC3CC(CC(O)(C3)C1)C2)NCCc1ccc(Cl)cc1` ) is > 50 µM (not active)

# IC50 (compound: `Cc1ccc(S(=O)(=O)CC(=O)Nc2c(C)n(C)n(-c3ccccc3)c2=O)cc1` ) is 3.58 µM (active)

----------
molecular target: Nonstructural protein 1 (Influenza A virus, UniProt Q194T2); assay type: functional, Influenza A virus (A/California/07/2009(H1N1))
The source made the active and inactive calls.
Assignment: determine reported IC50 for the given compounds.

# IC50 (compound: `COc1cnc(-c2ccccn2)nc1N(C)C` ) is 1.92 µM (active)

# IC50 (compound: `CCN1C(=O)/C(=C/C=C2\N(CC)c3cc(S(=O)(=O)N(C)C)ccc3N2c2ccccc2)SC1=S` ) is 55.3 µM (active)

# IC50 (compound: `CCOc1cc(CNc2ccc(N3CCCC3)cc2)cc(Cl)c1OC` ) is 20.7 µM (active)

# IC50 (compound: `CC(=O)c1c(O)n(Nc2nc(C)cc(C)n2)c(C)cc1=O` ) is 12.9 µM (active)

# IC50 (compound: Oc1c(C(c2ccccn2)N2CCCCC2)cc(Cl)c2cccnc12 (configuration not stated) ) is 8.02 µM (active)

# IC50 (compound: `Oc1cccc(/C=N/Nc2ccc(Cl)nn2)c1O` ) is 2.23 µM (active)

# IC50 (compound: `Cc1cc(N(C)C)ccc1N=Nc1ccc(N)cc1` ) is 21.4 µM (active)

----------
Molecular target: Carboxy-terminal domain RNA polymerase II polypeptide A small phosphatase 1 (Homo sapiens, UniProt Q9GZU7)
Sequence (Q9GZU7 whole entry): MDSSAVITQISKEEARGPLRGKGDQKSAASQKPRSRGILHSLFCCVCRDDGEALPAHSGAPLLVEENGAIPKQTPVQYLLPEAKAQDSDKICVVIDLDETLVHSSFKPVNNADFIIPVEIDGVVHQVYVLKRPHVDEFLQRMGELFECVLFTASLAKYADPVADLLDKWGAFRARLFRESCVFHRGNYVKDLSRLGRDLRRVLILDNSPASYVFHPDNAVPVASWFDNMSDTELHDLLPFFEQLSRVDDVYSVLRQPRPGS
Experiment: CTDSP1 inhibitors, concentration-response, biochemical, absorbance readout, ultra-high-throughput screen actives (AID 540297)
Format: functional
Activity calls are given as the source filed them.
Readout: IC50

# IC50 (molecule: COc1cc(OC)c2ccc(=O)oc2c1C(CC(=O)N1CCCC(C)C1)c1ccc2c(c1)OCO2 (centres undefined) ) is 14.3 µM (active)

# IC50 (molecule: `O=C(CSc1nc2c(sc3ccccc32)c(=O)n1CCO)NCc1ccco1` ) is 8.39 µM (active)

# IC50 (molecule: C[N+]1=C2CCCCCN2C(O)(c2ccccc2)C1 (centres undefined) ) is 7.03 µM (active)

# IC50 (molecule: `O=C(N/N=C/c1ccccc1F)c1cc2c(ccc3ccccc32)o1` ) is 4.45 µM (active)
